Ref: ChEMBL document CHEMBL4689842

Test system: U2OS
procedure_details: Multiplex assay against U2OS
Assay type: toxicity, cell-based
study_conditions: human, 24 h, 1 µM, compound concentration 1 uM, replicate 1
For each of the compounds below, state its Population Hoechst High Intensity Objects (%).
Value expressed in %; do not type the unit.

Enquiry: What Population Hoechst High Intensity Objects (%) value was documented for this compound, "CN1CCN(Cc2ccc(Nc3ncc(Cl)c(Nc4ccccc4S(=O)(=O)N(C)C)n3)cc2)CC1" ?
Return: 10

Enquiry: What Population Hoechst High Intensity Objects (%) value was documented for this compound, "COc1ccccc1CN[C@H]1C2CCN(CC2)[C@H]1C(c1ccccc1)c1ccccc1" ?
Return: 7

Enquiry: What Population Hoechst High Intensity Objects (%) value was documented for this compound, "Cc1nc(N2CC[C@H](O)C2)ncc1-c1cc(C(F)(F)F)cc2[nH]ncc12" ?
Return: 1

Enquiry: What Population Hoechst High Intensity Objects (%) value was documented for this compound, "CC(C)CC(=O)Nc1[nH]nc2c1CN(C(=O)C1CCN(C)CC1)C2(C)C" ?
Return: 1

Enquiry: What Population Hoechst High Intensity Objects (%) value was documented for this compound, "Cc1c[nH]c2nccc(Oc3c(F)cc(Nc4cc(Cl)nc(N)n4)cc3F)c12" ?
Return: 3

Enquiry: What Population Hoechst High Intensity Objects (%) value was documented for this compound, Cc1cccc(CN2CCN(C(c3ccccc3)c3ccc(Cl)cc3)CC2)c1.Cl.Cl (stereo not drawn) ?
Return: 5

Enquiry: What Population Hoechst High Intensity Objects (%) value was documented for this compound, "CCCSc1nc(N[C@@H]2C[C@H]2c2ccc(F)c(F)c2)c2nnn([C@@H]3C[C@H](OCCO)[C@@H](O)[C@H]3O)c2n1" ?
Return: 7

Enquiry: What Population Hoechst High Intensity Objects (%) value was documented for this compound, "O=c1[nH]c2ccccc2n1C1CCN(Cc2ccc(-c3[nH]c4cc5ncnc5cc4nc3-c3ccccc3)cc2)CC1" ?
Return: 5

----------
Test system: Fibroblast
procedure_details: Multiplex assay against human fibroblast
Type: toxicity, cell-based
study_conditions: 48 h, 10 µM, compound concentration 10 uM, replicate 2
Param threshold (100) applies to Total Cell Count; output Met when value >= threshold, Not met when value < threshold.

Enquiry: Hello, I need to know if CCc1nn(CCCN2CCN(c3cccc(Cl)c3)CC2)c(=O)n1CCOc1ccccc1.Cl [NEFAZODONE HYDROCHLORIDE] has measured Total Cell Count not below 100. Thanks!
Return: Met

Enquiry: Hello, I need to know if "CNC(=O)Nc1ccc(-c2nc(N3CC4CCC(C3)O4)c3cnn(C4CCC5(CC4)OCCO5)c3n2)cc1" has measured Total Cell Count not below 100. Thanks!
Return: Met

Enquiry: Hello, I need to know if "CC(C)Oc1ccccc1C(=O)Nc1ccccc1C(=O)Nc1cccc(S(=O)(=O)C(F)(F)F)c1" has measured Total Cell Count not below 100. Thanks!
Return: Met

Enquiry: Hello, I need to know if Cc1ccccc1C(c1ccccc1C)N1C2CCC1CC(O)(c1ccccc1)C2 (stereo not given) has measured Total Cell Count not below 100. Thanks!
Return: Met

Enquiry: Hello, I need to know if "Cl.O=C(O)c1cc(-c2ccc(C3CCNCC3)cc2)c2ccc(-c3ccc(C(F)(F)F)cc3)cc2c1" has measured Total Cell Count not below 100. Thanks!
Return: Met

Enquiry: Hello, I need to know if O=C(c1cc2c(cc1F)OC(c1ccc(F)cc1)(c1ccc(Cl)cc1Cl)O2)N1CCOCC1 (stereo not given) has measured Total Cell Count not below 100. Thanks!
Return: Met

Enquiry: Hello, I need to know if "Cc1c[nH]c2nccc(Oc3c(F)cc(Nc4cc(Cl)nc(N)n4)cc3F)c12" has measured Total Cell Count not below 100. Thanks!
Return: Met

Enquiry: Hello, I need to know if "COC(=O)C1=C(C)NC(C)=C(C(=O)OCCCN2CCC(c3ccccc3)(c3ccccc3)CC2)[C@H]1c1cccc([N+](=O)[O-])c1" has measured Total Cell Count not below 100. Thanks!
Return: Met

Enquiry: Hello, I need to know if "COc1ccc(-c2ccc3ncc4c(c3c2)n(-c2ccc(N3CCNCC3)c(C(F)(F)F)c2)c(=O)n4C)cn1.O=C(O)/C=C\C(=O)O" has measured Total Cell Count not below 100. Thanks!
Return: Not met

Enquiry: Hello, I need to know if "CC(C)c1noc(N2CCC(COc3ccc(-c4ccc(S(C)(=O)=O)cc4)nc3)CC2)n1" has measured Total Cell Count not below 100. Thanks!
Return: Not met

Enquiry: Hello, I need to know if "C#Cc1cccc(Nc2ncnc3cc(OCCOC)c(OCCOC)cc23)c1" has measured Total Cell Count not below 100. Thanks!
Return: Not met

Enquiry: Hello, I need to know if Cc1ccc2c(c1)c1c(n2CCc2ccc(C)nc2)CCN(C)C1 [LATREPIRDINE] has measured Total Cell Count not below 100. Thanks!
Return: Met

Enquiry: Hello, I need to know if COc1cc2ncn(-c3cc(OCc4ccccc4C(F)(F)F)c(C(N)=O)s3)c2cc1OC [GW843682X] has measured Total Cell Count not below 100. Thanks!
Return: Met

Enquiry: Hello, I need to know if "Cc1ccc(C)c(Oc2ccncc2C(=O)N2CCN(C3CC3)c3ccccc32)c1" has measured Total Cell Count not below 100. Thanks!
Return: Met

Enquiry: Hello, I need to know if "CCCSc1nc(N[C@@H]2C[C@H]2c2ccc(F)c(F)c2)c2nnn([C@@H]3C[C@H](OCCO)[C@@H](O)[C@H]3O)c2n1" has measured Total Cell Count not below 100. Thanks!
Return: Met

Enquiry: Hello, I need to know if "COc1cc(Nc2nccc(-c3cnn4nc(OC)ccc34)n2)cc(C(F)(F)F)c1" has measured Total Cell Count not below 100. Thanks!
Return: Met

Enquiry: Hello, I need to know if CC1=C(C(=O)Nc2cc3cn[nH]c3cc2F)C(c2ccc(C(F)(F)F)cc2)CC(=O)N1 (stereo not given) has measured Total Cell Count not below 100. Thanks!
Return: Met

Enquiry: Hello, I need to know if "O=c1cc(N2CCOCC2)oc2c(-c3cccc4c3sc3ccccc34)cccc12" has measured Total Cell Count not below 100. Thanks!
Return: Not met

Enquiry: Hello, I need to know if "COc1ccccc1CN[C@H]1C2CCN(CC2)[C@H]1C(c1ccccc1)c1ccccc1" has measured Total Cell Count not below 100. Thanks!
Return: Met

Enquiry: Hello, I need to know if "CCc1ccc(OCc2ccccc2C(=O)Nc2ccc3nc(C)cc(N)c3c2)cc1.Cl" has measured Total Cell Count not below 100. Thanks!
Return: Not met

Enquiry: Hello, I need to know if Cc1cccc(CN2CCN(C(c3ccccc3)c3ccc(Cl)cc3)CC2)c1.Cl.Cl (stereo not given) has measured Total Cell Count not below 100. Thanks!
Return: Met

Enquiry: Hello, I need to know if "CN1CCN(Cc2ccc(Nc3ncc(Cl)c(Nc4ccccc4S(=O)(=O)N(C)C)n3)cc2)CC1" has measured Total Cell Count not below 100. Thanks!
Return: Not met

Enquiry: Hello, I need to know if "CCOC(=O)Nc1cc(-c2ccc(C)c(NS(C)(=O)=O)c2)nn2c(C)nnc12" has measured Total Cell Count not below 100. Thanks!
Return: Met

Enquiry: Hello, I need to know if "CC(C)NC(=O)N1CC[C@H](NC2=Nc3cc(F)ccc3N(CC(F)F)c3ccc(Cl)cc32)C1" has measured Total Cell Count not below 100. Thanks!
Return: Not met

----------
Test system: U2OS
procedure_details: Incucyte cell viability with U2OS; further: filed as whole numbers so only -1 and 0 and 1 occur
Assay type: toxicity, cell-based
study_conditions: human, 0 h, 10 µM, compound concentration 10 uM, replicate number 2, timepoint 0 hours
For each of the molecules below, state its Growth Rate.
Answer with a number only.

Enquiry: # returns recorded Growth Rate (system: U2OS) for "CNC(=O)Nc1ccc(-c2nc(N3CC4CCC(C3)O4)c3cnn(C4CCC5(CC4)OCCO5)c3n2)cc1"
Return: 0

Enquiry: # returns recorded Growth Rate (system: U2OS) for "CN1CCN(Cc2cc(NC(=O)c3ccc4c(c3)CN(c3ccccc3)CC4)cc(C(F)(F)F)c2)CC1"
Return: 0

Enquiry: # returns recorded Growth Rate (system: U2OS) for Cc1cccc(CN2CCN(C(c3ccccc3)c3ccc(Cl)cc3)CC2)c1.Cl.Cl (stereo not drawn)
Return: 1

Enquiry: # returns recorded Growth Rate (system: U2OS) for "Cc1cc(C)c(-n2ccn3nc(-c4cccnc4)cc23)cc1NC(=O)c1cc(C#N)cc(S(F)(F)(F)(F)F)c1"
Return: 0

Enquiry: # returns recorded Growth Rate (system: U2OS) for "O=S1(=O)c2cccc3cccc(c23)N1CCCN1CCN(c2ccc(F)cc2)CC1"
Return: 0

Enquiry: # returns recorded Growth Rate (system: U2OS) for "C=CC(=O)Nc1ccc2[nH]c(=O)n(C3CCN(Cc4ccc(-c5nc6cc[nH]c(=O)c6cc5-c5ccccc5)cc4)CC3)c2c1"
Return: 1

Enquiry: # returns recorded Growth Rate (system: U2OS) for COc1cc2ncn(-c3cc(OCc4ccccc4C(F)(F)F)c(C(N)=O)s3)c2cc1OC [GW843682X]
Return: 0

Enquiry: # returns recorded Growth Rate (system: U2OS) for "CC(C)CC(=O)Nc1[nH]nc2c1CN(C(=O)C1CCN(C)CC1)C2(C)C"
Return: 0
